B1: tRNA (parent)
chain: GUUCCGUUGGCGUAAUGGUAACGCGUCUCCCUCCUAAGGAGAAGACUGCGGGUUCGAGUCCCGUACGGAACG

Variants of: B1
Assay: yeast fitness relative to wild type (ratio to wild type); higher = fitter; tRNA-Arg(CCU), competitive growth, 37 C, YPD
This sample holds only a part of the variants without activity.
Label true (1) when yeast fitness >= 0.6; otherwise false (0).

>>> class_label("GGUCCGUUGGCGUAAUGGUAACGCGUCUCCCUCCUAAGGAGAAGACUGCGGGUUCGAGUUACGUACCGAACG")
"false (0)"
>>> class_label("GUUCCGCUGGCGUAAUGGUAACGCGUUUCCCUCCUAAGGAGAUGACUGCGGGUUCGAGUCUCGUACGGAACG")
"false (0)"
>>> class_label("GUUCCGUUGGCGUAAUGGUAACGCGUCCCCCUCCUAAGCAGAACAUUGCGGGUUCGAGUCCCGUACGGAACG")
"false (0)"
>>> class_label("GUUCCGUUGGCGUAAUGGUAACGCGUCUGCCUCCUCAGGAAAAGACUGCAGGCUCGAGUCCCGUACGGAACG")
"false (0)"
>>> class_label("GUGCCGUUGGCGUAAUGGUAACGCGUCUCCCUCCUAAGGAGAUGACUGCGGGUUCGAGUCCUGUACGGAACG")
"true (1)"
>>> class_label("GUUCCGUUGGCGUAAAGCUAACGCGACUCCCUCCUAAGGAGAAGACCGCGGGUUCGAGUCCCGUCCGGAACG")
"false (0)"
>>> class_label("GUUCCGUUGGCGUAAUAGUAACGCGUCUCCCUUCUUAGGAGAAGAAUGCGGGUUCGAGUCCCGUACGGAACG")
"true (1)"
>>> class_label("GUUCCGUUGGCGUAAUGGUAACGCGUCUCUCUCCUAAGGAGAAGACUGCAGGUUCGAGUCCCGUACGGAACG")
"true (1)"
>>> class_label("GUUCCGUUGGCGUAAUGGCAACGCGUCUCCCUCCUAAGGAGAAGACUGGGGGUUCGAGUCCCGUACGGAACG")
"true (1)"
>>> class_label("GUUCCGUUCGCGUAAUGGUAACGCGUCUCCCUCCUUAGGUGAAAACUGCGGGUUCGAGUCCCAUACGGAACG")
"false (0)"
>>> class_label("GUUCCGUUGGCGUAAUGGUAACGCGUCUCACUCCUAAGGAGAAGACUGCGGGUUCGAGUUCCGUAUGGAACG")
"false (0)"
>>> class_label("GUUCCGUUGGCGUAAUAGUAACGCGUCUCCCUCCUAAGGAGAAGACUGUGGGUUCGAGUCCCGUACGGAACG")
"true (1)"
>>> class_label("GUUUCGUUGGAGUAAUGGUAACGCGUCUCCCUCCUACGGAGAAGACUGCGGGUUCGAGUCCCGUACCGAACG")
"false (0)"
>>> class_label("GUUCCGUUGGCUUAAUGGUAACGCGUCUCCCUCCUAAGGAGAAGACUGCGGGUUCGCGUCCCGUACGGAACG")
"false (0)"
>>> class_label("GUUCUCUUGGCGUAAUGGUAUCGCGUCUCCCUCCCAAGAAGAAGACUGCGGGUUCGAGUCCCGUACGGAACG")
"false (0)"
>>> class_label("GUUCCGUCGGCGUAAUGGUAACGCGUCUCCCUCCUAAGGUGAAGACUGCGGGUUCGAGUCCCGUACGGUACG")
"true (1)"
>>> class_label("GUUCGGUUGGCGUAGAGGUGACGCGUCACACUACUUAGGAGAAGACCGCGGGUUCGAGUCCCGUACGGCACG")
"false (0)"
>>> class_label("GUUCCGUUGGCGUAAUGGUAACGAGGCUCGCUCCUAAGGAGAUGACUGCGGGUUCGAGUCCUGUACGGAACG")
"false (0)"
>>> class_label("GUUCCGUUGGCGUAAUGGUAACGCGACUCCCUCCUAACGAGAAGACAGAGGGUUCGAGUCCCGUACGGAACG")
"false (0)"
>>> class_label("GUUCCGUUGGAGUAAUGGUAACGCGUGUCCCUCCAAAGGAGAUGACUGCGGGUCCGAGUCCCGUGCGGAACG")
"true (1)"
>>> class_label("GCUCCGUUGGCGUAAUGGUAACGCGUCUCCCUCCUAAGGAGAAGACUACGGAUUCGAGUCCCGUACGGAACG")
"true (1)"
>>> class_label("GUUCCGUUGGCGUUAUGGUAACGCGUCUCGCUCCUAAGGGGAAGACUGCGGGUUCGAGUCCCGUAUGGAACG")
"false (0)"
>>> class_label("GUUCCGUUGGCGUAAUGGUAAAGCGUCCCCCUCCUAAGGAGAAGACUGCGGGUUCGAGUCCCGUACAGAACG")
"false (0)"
>>> class_label("GUUCCGUUGGCGUAAUGGUAACGCGUCUAUCUCUUAAGGAGAAGACUGCGGGUUCGAGUCUCGUAAGGAACG")
"false (0)"
>>> class_label("GUUCCGUUGGCCUAAUGCUAACGCAUCUCCCUCCUAAGGAGAAGACUGCGGGUUCGAGUCCCGUAUGGAACG")
"false (0)"
>>> class_label("GUUCCGUUGGCGUAAUGGUAACGUGUCUCCCUCCUAAGGAGAAGACUGCGGGAUAGAGUCCCGUACGGAACG")
"true (1)"
>>> class_label("GUUCCGUUGGCGUAAUGGUAACGCGUCUCCCUCCUCAGGAGAAGACUGCGGGUUCGCGUCCCGUACGGAGCG")
"false (0)"
>>> class_label("GUUCCGUUGGCGUAAUGGUAAGGCGUCUCCUUCCUAAGGAGAAGACUGUGGGUUCGAGUCACGUACGGAACG")
"false (0)"
>>> class_label("GUUCCGUUGGAGAAAUGGUAACGCGUCUCCGUCCUAAGGAGAAGACUGCGGGUUCGAGUCCCGUCCGGAACG")
"false (0)"
>>> class_label("GUUCCGUUGGAGUAAUGGUAACGUGUCUCCCUCCUAAGGAGAAGACUGCGGGUUCGAGUACCGUACGGAACG")
"false (0)"
>>> class_label("GUUCCGGUGGCGUAAUGGCAACGCGUCUCCCUCCUAAGGAGAAGACUGCGGGUUCGAGUCCCGUACGGAACG")
"true (1)"
>>> class_label("GUUCCGUUGGUGUAAUGGUCAGGCGUCUCCCUCCUAAGGAGAAGACUGCGGGUUCGAGUCCCGUACGGAACG")
"false (0)"
>>> class_label("GUUCCGUUGGCGUAAUGGUAACGCGUCUCCCUACUAACGAGAGGACUGCGGGUUCGAGUCCCGUACGGAACG")
"false (0)"
>>> class_label("GUUCCGUAGCCGUAAUGGUAACGCGUCUACCUCCUAAGGUGAAGACUGCGGGUUGGAGUCCCGUACGGAACG")
"false (0)"
>>> class_label("GUUCCGUUGGCGUAAUGGUAACGCGUUUCCCUCCUAAGGAGAAGACCGCGGGUUCGAGUCCCGUACGAAACG")
"true (1)"
>>> class_label("GUUCCGUUGGCGUAAUGGUAAAGCGUCUCCCUCCUAAGGAGAAGCCUGCGGGUUCGAGUCCCGUACGGAACG")
"true (1)"
>>> class_label("GUUCCGUUGGCAUAAUGGUAACGGGUCUCCCUCCUAAGGAGAAGACUGCGGGUUCGAGUCCCGUACGAAACG")
"false (0)"
>>> class_label("GUUCCGUUGGCGUACUGGUAACGAGUCUCCCUCCUAAGGAGAAGACUGCGGGCUCGAGUCCCGUACGGAACG")
"false (0)"
>>> class_label("GUUCAGUUGGCGUAAUGGUAACGCGUCUCCCUCCUCAGGAGAAGACUGCGGGUUCGAGUCCCGUACGGCACG")
"false (0)"
>>> class_label("GCUCCGUUGGCGUAAUGGUAACGCGUCUCCCUCCUAAGGUGCAGACUGCGGGUUCGAGUCCCGUAUGGAACG")
"false (0)"
>>> class_label("GUUCCGUUGACGUAAUGGUAACGCGUCUCCCUCCUAAGGAGCCGACUGCGGGUUCGAGUCCCGUACGGAUCG")
"false (0)"
>>> class_label("GUUCGGUUGGCGUAAUGGUAACGCGUCUCCCUCCUAAGGAGAAGACUACGGGUUCGAGUCCCGUACGGAUCG")
"true (1)"
